Each recorded value in this set is attributed to the supplement of paper PMC9170038.

The sequences listed here are annotated with their apparent KD of MS2 coat protein.
Test system: MS2 coat protein
Experiment: apparent KD of MS2 coat protein; designed switch direction (-1 OFF switch, 1 ON switch): -1; higher = weaker reporter binding
Conditions: input ligand: none
value.type: apparent KD of MS2 coat protein (nM)

[[record]]
sequence_entry = "GGAUCGAGAGUGAGGAUAUGCUGGUCCUUGGAUCAGCAGAAGGCACAUGAGGAUCACCCAUGUGAUUUCGAUCC [Mat - Exclusion 4 - Eli Mod - D40] (Eterna round: R97, puzzle: Brourd's mod of Exclusion 4)"
value_observed = 18.1

[[record]]
sequence_entry = "UAACAAGCUUUAAGAUCCUACAUGAGGAUCACCCAUGUGCUCGUCUUGUAACGUACUGUGACGAAAGUCACGGUACG [JL TOV1 3.16] (Eterna round: R97, puzzle: Sensor, turn-off variant 1)"
value_observed = 231

[[record]]
sequence_entry = "GUAUAGUGAGUCAGGAUAUUAGAGGACCAGUUUCCUAAGAAGGGACAUGAGGAUCACCCAUGUGCAUAGGACGU [Eternabot (Original) Solution 20] (Eterna round: R97, puzzle: Brourd's mod of Exclusion 4)"
value_observed = 23

[[record]]
sequence_entry = "CGUUGAAUAGGAUAUACAUGAGGAUCACCCAUGUGAAAUUAUAGUGAGGAAAUGAAAAGUAGAAGGGUUUGACA [Mod of Mat 8 - Jieux - Exclusion 3] (Eterna round: R97, puzzle: Exclusion 3)"
value_observed = 30.4


* * *

Tested on: MS2 coat protein
Test: apparent KD of MS2 coat protein, switch ON state; designed switch direction (-1 OFF switch, 1 ON switch): -1; higher = weaker reporter binding
Conditions: FMN input: 0 or 200 uM; Eterna round: R93 (includes R88 designs)
Everything with apparent KD of MS2 coat protein lower than 50 nM is condition not met; everything else, including exactly 50 nM, is condition met.

[[record]]
sequence_entry = "AGAAAUGUAGGAUAUACAUGAGGAUCACCCAUGUGGGAGGAGGAGCAAACAAGACGAGGUAGAAGGACAACGAC [JR_Exc003-Sub903]"
label_value = "condition met"

[[record]]
sequence_entry = "CCAGAUGCAGGAUAUACAUGAGGAUCACCCAUGUGGCACACACCCACCCACAGCACCCGUAGAAGGGCAGCACG [Halfast on Cytosine - Jieux - Exclusion 3]"
label_value = "condition not met"

[[record]]
sequence_entry = "AGCACGGUAGGAUAUACGAACAAAACGGGAGAACUAAAGGGACAUGAGGAUCACCCAUGUAGAAGGACCAAGCA [Diamond 90]"
label_value = "condition not met"

[[record]]
sequence_entry = "AAGAUGUGAGGAUAUGCUGCUCGUCACAAAAGUGAUGAGUAGCAGAAGGUACAUGAGGAUCACCCAUGUAAAGA [JL eternac mod 7]"
label_value = "condition not met"

[[record]]
sequence_entry = "AAAAAGCUAGGAUAUACGAAAAAAAAGGGUAGAAAAAAAACACAUGAGGAUCACCCAUGUAGAAGGAGCAAAAA [Mat - Exclusion 2 - Tesla mod - D33]"
label_value = "condition not met"

[[record]]
sequence_entry = "AGAAAGUCAGGAUAUACGAAAAAAAAGGGAAACAACAAGGGACAUGAGGAUCACCCAUGUAGAAGGGACAAGAA [Diamond 98]"
label_value = "condition met"


* * *

Tested on: MS2 coat protein
Test: apparent KD of MS2 coat protein; designed switch direction (-1 OFF switch, 1 ON switch): -1; higher = weaker reporter binding
Conditions: Eterna round: R95; input ligand: FMN 200 uM
Kindly return t if reported apparent KD of MS2 coat protein is no lower than 0.04 µM; return f if it is lower.

[[record]]
sequence_entry = "CUGGUCCGAGGAUAUAUGAUGUGAAACAUGAGGAUCACCCAUGUAAUAUUAUGGAAGAAAAUAGAAGGCGGACUAG [Mat - Exclusion 5 - JL mod - D38] (puzzle: Exclusion 5)"
target_entity = "MS2 coat protein"
label_value = "f"

[[record]]
sequence_entry = "AAAUGCAAGCAAAGAUCUUACAUGAGGAUCACCCAUGUGCUCGUCUUAUAAAGUACUAUCACGAAAGUGAUAGUACA [Sensor 3, v1 - 28] (puzzle: Sensor v3, turn-off variant 1)"
target_entity = "MS2 coat protein"
label_value = "f"

[[record]]
sequence_entry = "AAAAAACAUGAGGAUCACCCAUGUCAGGAUAUCCGAAAAGAAAAAUAAAAAGAAAAAGGGAGAAGGGACAAAAA [April's ex-date #3] (puzzle: Exclusion 1)"
target_entity = "MS2 coat protein"
label_value = "t"

[[record]]
sequence_entry = "GCACGGUAAGUGAGGAUAUACCUCUGGAUACAGAGGUAGAAGGCACAUGAGGAUCACCCAUGUCUAUACCGUGC [Fiskers BMX 4 - 81] (puzzle: Brourd's mod of Exclusion 4)"
target_entity = "MS2 coat protein"
label_value = "f"

[[record]]
sequence_entry = "GACUGGACGUGGUCUGGUAACAUGAGGAUCACCCAUGUAGGUCUAAGAACAUGCCUUUUGCACGCUCGUCUUAUAUA [JR_SV3TOV1_Sub064] (puzzle: Sensor v3, turn-off variant 1)"
target_entity = "MS2 coat protein"
label_value = "f"


* * *

System: MS2 coat protein
Experiment: apparent KD of MS2 coat protein; higher = weaker reporter binding
Conditions: Eterna round: R107; input ligand: theophylline 20 uM
value.type: apparent KD of MS2 coat protein

[[record]]
sequence_entry = "CCUAUGCAGUCGGCCGCCACUGAAAACAGCCUCAAAAUAAAUAUAACAUGAGGAUCACCCAUGUACAGGACCGGGACUGUAUAGG [Ex Tryptophan B 11]"
value_type = "apparent KD of MS2 coat protein"
value_observed = "200 nM"

[[record]]
sequence_entry = "CCUGCGUUUCUUUUCUUUCGCAGGAAUGAUACCAGUAGGGAAACCUACCCUUGGCAGCAUGGGUAACAUGAGGAUCACCCAUGUU [SSThA NP+V+V2 #5 Same Structure]"
value_type = "apparent KD of MS2 coat protein"
value_observed = "392 nM"

[[record]]
sequence_entry = "UUGGCACGGACGGCCGCCACUCUUUCACAUGAGGAUCACCCAUGUUAUCUAGUCCUCAGCAGAAAGAGGACCGGGUCGGAGUUGG [theeternabot_exclusion_MS2_Trp_B_13]"
value_type = "apparent KD of MS2 coat protein"
value_observed = "168 nM"

[[record]]
sequence_entry = "UGUAUGUGAUUUGAUACCAGACCAGCUGGUGGUACACGAGGAUCACCCGUGUAGGUUUGGGUCCCUUGGCAGCAAAUCGCAUACU [SS Theo B #24 Ms3]"
value_type = "apparent KD of MS2 coat protein"
value_observed = "68.7 nM"

[[record]]
sequence_entry = "AAUAACAUGAGGAUCACCCAUGUAAAAGAUACCAGAGUGAUGAUCCUCCCUUGGCAGCUUAAUAACGCUAUCGGAAACGAUAGCG [Mat - Same State Theophlline A - Mod of Eli - D8]"
value_type = "apparent KD of MS2 coat protein"
value_observed = "170 nM"

[[record]]
sequence_entry = "AUUACAUGGAUUACAACUAAAUCAACUGAAGGAGCGUGAAGGAUCACAGGUAGGUCGCAGUACAUGAGGAUCACCCAUGUUAUAA [JR_Nu_SSArginiA_Sub021]"
value_type = "apparent KD of MS2 coat protein"
value_observed = "48.5 nM"

[[record]]
sequence_entry = "UCGCGAUAGAGAAGGAGCGUCAACACCACUUAACAUGAGGAUCACCCAUGUGUUACUUUGUGACAGGUAGGUCGCUCUAGCGCUU [JR_Nu_ExcArginiB_Sub026]"
value_type = "apparent KD of MS2 coat protein"
value_observed = "25.3 nM"

[[record]]
sequence_entry = "AUAUUAGACCUGGAUACCAGCGACAUGAGGAUCACCCAUGUAUGUGCAUCUGCCAUGAUAUGCCCUUGGCAGCCACCGAGGUCGU [CZZMULLIN]"
value_type = "apparent KD of MS2 coat protein"
value_observed = "16 nM"

[[record]]
sequence_entry = "GACGGGCCUAUUGAUACCAGACCUAGUGACAACAUGAGGAUCACCCAUGUGACGGCAAAAGUCCCUUGGCAGCAAGUAGAAAUAA [theeternabot_sameState_MS2_Theo_B_41]"
value_type = "apparent KD of MS2 coat protein"
value_observed = "16.6 nM"

[[record]]
sequence_entry = "UCGUUUUAGUCGGCCGCCACUGUAUGCAUGUUUAACAUGAGGAUCACCCAUGUCCCGUACUAUUUCAGGACCGGGACGUAAUCGA [JR_SSTryptoB_Sub007]"
value_type = "apparent KD of MS2 coat protein"
value_observed = "301 nM"

[[record]]
sequence_entry = "GAUUGCAUCGAUUCUCCACUCGCACCUGAUACCAGCGAUAGAAUUCGCCCUUGGCAGCAGUACACAUGAGGAUCACCCAUGUUAU [theeternabot_exclusion_MS2_Theo_A_20]"
value_type = "apparent KD of MS2 coat protein"
value_observed = "42.4 nM"

